Reported log10(IC50) values follow for various compounds
tested on: rat mast cells; experiment: Inhibitory action on degranulation of mast cells (histamine release from rat mast cells); assay type: cell-based; conditions: Mast cell; rat peritoneal mast cells, anti-IgE antibody, 37° C.
observable: log10(IC50) (log10 of the value in µM)

- compound: "CCOC(=O)CCCC(=O)C(=O)C(Cc1cccc(F)c1)NC(=O)Cn1c(-c2ccccc2)ncc(N)c1=O (centres unmarked)"
  measuredTarget: "rat mast cells"
  log10(IC50): 1.54
- compound: "CCCCC(=O)C(=O)C(Cc1ccccc1)NC(=O)Cn1c(-c2ccccc2)ncc(N)c1=O (centres unmarked)"
  measuredTarget: "rat mast cells"
  log10(IC50): 1.15
- compound: "Nc1cnc(-c2ccccc2)n(CC(=O)NC(Cc2ccccc2)C(=O)C(=O)CCCN2CCOCC2)c1=O (centres unmarked)"
  measuredTarget: "rat mast cells"
  log10(IC50): 1.11
- compound: "CC(=O)C(=O)C(Cc1cccc(F)c1)NC(=O)Cn1c(-c2ccccc2)ncc(N)c1=O (centres unmarked)"
  measuredTarget: "rat mast cells"
  log10(IC50): 1.70
- compound: "Nc1cnc(-c2ccccc2)n(CC(=O)NC(Cc2ccccc2)C(=O)C(=O)CCCc2ccccc2)c1=O (centres unmarked)"
  measuredTarget: "rat mast cells"
  log10(IC50): 0.26
